Test system: human SMAD7 mRNA
assayExplanation: Antisense inhibition of human SMAD7 mRNA expression in Hep3B cells by 3-10-3 cEt gapmers, 10,000 nM, electroporation (Example 2)
Format: cell-based
conditionDescription: Hep3B cells, electroporation with 10,000 nM antisense oligonucleotide, approximately 24 hours, SMAD7 mRNA by RT-PCR (RTS5062), relative to untreated control cells
Procedure: Antisense oligonucleotides were designed to target human SMAD7 mRNA and were tested for their effects on SMAD7 mRNA expression in vitro. […] After a treatment period of approximately 24 hours, RNA was isolated from the cells and SMAD7 mRNA levels were measured by quantitative real-time PCR. […] SMAD7 mRNA levels were adjusted according to total RNA content, as measured by RIBOGREEN®. […]
Strand notation (5' to 3'): a small letter for the sugar, then the base; units joined by * are phosphorothioate-linked, units joined directly phosphodiester-linked; [ ] holds rarer units or linkages, { } end groups; capitals alone tell only the bases. k = constrained ethyl (cEt); [5mC] = 5-methylcytosine; d = 2'-deoxy (DNA)
Use 30% as the dividing line for % Inhibition, with the line itself on the condition met side and lower values as condition not met.

Below, 2 substances whose answers are already recorded.
800004 (kT*kT*kT*dT*dA*dA*dT*dT*dT*dG*dA*dA*dG*kG*k[5mC]*kG; antisense) [compound 800004] | condition not met
830104 (kT*kA*kA*dG*d[5mC]*d[5mC]*d[5mC]*dG*d[5mC]*dT*d[5mC]*dT*d[5mC]*kA*kG*k[5mC]; antisense) [compound 830104] | condition not met

Reported % Inhibition at or above 30%? 830115 (kA*k[5mC]*k[5mC]*d[5mC]*dT*dA*dA*dA*d[5mC]*dT*dG*dA*dG*k[5mC]*k[5mC]*k[5mC]; antisense) [compound 830115] condition not met

Reported % Inhibition at or above 30%? 798734 (antisense kG*k[5mC]*k[5mC]*d[5mC]*dG*d[5mC]*dG*dG*d[5mC]*dT*dG*dG*d[5mC]*kG*kG*kG) [compound 798734] condition not met

Reported % Inhibition at or above 30%? 830146 (antisense kT*kG*kG*dT*d[5mC]*dT*dT*d[5mC]*dA*d[5mC]*d[5mC]*dA*dG*kG*kG*kT) [compound 830146] condition met

Reported % Inhibition at or above 30%? 798850 (k[5mC]*kA*kG*d[5mC]*dT*dG*dG*dA*dT*dG*d[5mC]*d[5mC]*dG*k[5mC]*kA*kG; antisense) [compound 798850] condition not met

Reported % Inhibition at or above 30%? 830048 (kT*kT*kT*d[5mC]*d[5mC]*dG*dA*dT*dT*dG*dG*d[5mC]*dA*kG*kG*kT; antisense) [compound 830048] condition met

Reported % Inhibition at or above 30%? 798671 (antisense kA*kG*k[5mC]*dG*dG*d[5mC]*dG*dG*d[5mC]*dG*dG*d[5mC]*d[5mC]*k[5mC]*kG*kA) [compound 798671] condition met
